Test: In vitro cytotoxic activity against sarcoma resistant to doxorubicin S-180 Dx cells.
Assay type: functional, cell-based
Details: Mus musculus
Here, each record is paired with measured IC50 data.

The cases that follow already have their IC50 on record.
| smi | IC50 |
| --- | --- |
| Cc1ccc2c3c(nn2CCN(C)C)-c2cnccc2Sc13 | 0.009 µg/mL |
| Cc1ccc2c3c(nn2CCN(C)C)-c2ccncc2Sc13 | 0.7 µg/mL |
| Cc1ccc2nn(CCN(C)C)c3c2c1Sc1ccccc1-3 | 0.75 µg/mL |
| Cc1ccc2nn(CCN(C)C)c3c2c1Sc1cnccc1-3 | 0.4 µg/mL |

q: Sample Cc1ccc2c3c(nn2CCN(C)C)-c2cccnc2Sc13 — what was its IC50?
a: 0.62 µg/mL

q: Sample Cc1ccc2nn(CCN(C)C)c3c2c1Sc1ncccc1-3 — what was its IC50?
a: 0.33 µg/mL

The measured values listed here are drawn from ChEMBL document CHEMBL1133386.
